- System: ABUTH
- protocolSummary: Pre-emergence herbicidal action against harmful plants
- Type: in vivo, Abutilon theophrasti
- conditionDetails: dosage 20 g/ha, scored visually after 3 weeks, 100% = plants have died, 0% = like control plants
Record form. Attribute: Activity against ABUTH. Fill in for each entry.
Quick note: give the figure in %, leave out the unit.

Task: Query: Activity against ABUTH; subject: Cc1nnc([N-]C(=O)c2ccc(C(F)(F)F)c(S(C)(=O)=O)c2C)o1.[Na+] [drawing 7]
Result: 100

Task: Query: Activity against ABUTH; subject: Cc1nnc(NC(=O)c2ccc(C(F)(F)F)c(S(C)(=O)=O)c2C)o1 [drawing 21]
Result: 100

Task: Query: Activity against ABUTH; subject: Cc1nnc(NC(=O)c2ccc(C(F)(F)F)c(S(C)(=O)=O)c2C)o1 [drawing 22]
Result: 70

Task: Query: Activity against ABUTH; subject: Cc1nnc(NC(=O)c2ccc(C(F)(F)F)c(S(C)(=O)=O)c2C)o1 [drawing 24]
Result: 70

Task: Query: Activity against ABUTH; subject: Cc1nnc(NC(=O)c2ccc(C(F)(F)F)c(S(C)(=O)=O)c2C)o1 [drawing 30]
Result: 70

Task: Query: Activity against ABUTH; subject: Cc1nnc(NC(=O)c2ccc(C(F)(F)F)c(S(C)(=O)=O)c2C)o1 [drawing 29]
Result: 100

Task: Query: Activity against ABUTH; subject: Cc1nnc(NC(=O)c2ccc(C(F)(F)F)c(S(C)(=O)=O)c2C)o1 [drawing 19]
Result: 100

----------
- System: ABUTH
- protocolSummary: Pre-emergence herbicidal action against harmful plants
- Assay type: in vivo, Abutilon theophrasti
- conditionDetails: dosage 320 g/ha, scored visually after 3 weeks
Record form. Attribute: Activity against ABUTH. Fill in for each entry.
Report as: number unit

Task: Hi! What's the reported Activity against ABUTH for CCc1nnc(NC(=O)c2ccc(S(=O)(=O)CC)c(C3=NOC(COC)C3)c2Cl)o1 (stereo not shown) [drawing 36] on ABUTH?
Result: 90%

Task: Hi! What's the reported Activity against ABUTH for CCc1nnc(NC(=O)c2ccc(S(=O)(=O)CC)c(C3=NOC(COC)C3)c2Cl)o1 (stereo not shown) [drawing 38] on ABUTH?
Result: 10%

Task: Hi! What's the reported Activity against ABUTH for CCc1nnc(NC(=O)c2ccc(S(=O)(=O)CC)c(C3=NOC(COC)C3)c2Cl)o1 (stereo not shown) [drawing 37] on ABUTH?
Result: 80%

Task: Hi! What's the reported Activity against ABUTH for CCc1nnc([N-]C(=O)c2ccc(S(=O)(=O)CC)c(C3=NOC(COC)C3)c2Cl)o1.[Na+] (stereo not shown) on ABUTH?
Result: 90%

----------
- Tested on: CYPES
- protocolSummary: Pre-emergence herbicidal action against harmful plants
- Type: in vivo
- conditionDetails: dosage 20 g/ha, scored visually after 3 weeks
Record form. Attribute: Activity against CYPES. Fill in for each entry.
Quick note: give the figure in %, leave out the unit.

Task: Query: Activity against CYPES; subject: Cc1nnc(NC(=O)c2ccc(C(F)(F)F)c([S+](C)[O-])c2Cl)o1 (centres unmarked) [drawing 34]
Result: 60

Task: Query: Activity against CYPES; subject: Cc1nnc(NC(=O)c2ccc(C(F)(F)F)c(S(C)(=O)=O)c2C)o1 [drawing 28]
Result: 40

Task: Query: Activity against CYPES; subject: Cc1nnc(NC(=O)c2ccc(C(F)(F)F)c(S(C)(=O)=O)c2C)o1 [drawing 24]
Result: 40

Task: Query: Activity against CYPES; subject: Cc1nnc(NC(=O)c2ccc(C(F)(F)F)c(S(C)(=O)=O)c2C)o1 [drawing 26]
Result: 40

Task: Query: Activity against CYPES; subject: Cc1nnc(NC(=O)c2ccc(C(F)(F)F)c(S(C)(=O)=O)c2C)o1 [drawing 27]
Result: 60
